Ki for Gastrin/cholecystokinin type B receptor (Mus musculus, UniProt P56481), merged from several publications.
Define the label as true when Ki is strictly less than 0.5 µM and as false in all remaining cases.

# molecule, assigned.category
rows = [
    ("CC(C)CC(CO)NC(=O)C(C)(Cc1c[nH]c2ccccc12)NC(=O)OC1C2CC3CC(C2)CC1C3 (centres unmarked)", "true"),
    ("O=C(Nc1ccc(Cl)cc1)N[C@@H](c1ccccc1)[C@@H](NC(=O)Nc1ccc(C(F)(F)F)cc1)c1ccccc1", "true"),
]

Here is another molecule to look at.
-- ask Criterion: Ki strictly below 0.5 µM. Is it met by CNC(=O)C1CCCCC1NC(=O)[C@@](C)(Cc1c[nH]c2ccccc12)NC(=O)OC1C2CC3CC(C2)CC1C3 (some centres unmarked) ?
-- reply true

---

Field Ki: reported value for Gastrin/cholecystokinin type B receptor (Mus musculus, UniProt P56481); entries drawn from several documents.
Numbers only, in µM.

The cases that follow already have their Ki on record.
# compound, Ki [µM]
records = [
    ("C[C@]1(C(=O)N[C@H](CO)Cc2ccccc2)Cc2c([nH]c3ccccc23)CN1C(=O)OC1C2CC3CC(C2)CC1C3 (stereo partly shown)", 0.73),
    ("CCC(C)C(CO)NC(=O)C(C)(Cc1c[nH]c2ccccc12)NC(=O)OC1C2CC3CC(C2)CC1C3 (stereo not shown)", 0.225),
    ("CC(CNCC(O)c1ccccc1)(Cc1c[nH]c2ccccc12)NC(=O)OC1C2CC3CC(C2)CC1C3 (stereo not shown)", 0.22),
    ("C[C@](Cc1c[nH]c2ccccc12)(NC(=O)OC1C2CC3CC(C2)CC1C3)C(=O)NC1(C(=O)O)CCCCC1 (stereo partly shown)", 0.04),
    ("CC1CCCCC1NC(=O)C(C)(Cc1c[nH]c2ccccc12)NC(=O)OC1C2CC3CC(C2)CC1C3 (stereo not shown)", 0.039),
    ("C[C@](Cc1c[nH]c2ccccc12)(NC(=O)OC1C2CC3CC(C2)CC1C3)C(=O)NCC(=O)OCc1ccccc1 (stereo partly shown)", 0.0504),
]

From here, focus on the item given below.
-- ask Sample CSCC[C@H](NC(=O)[C@@](C)(Cc1c[nH]c2ccccc12)NC(=O)OC1C2CC3CC(C2)CC1C3)C(=O)O (stereo partly shown) — what was its Ki?
-- reply 0.024

---

// merged dataset of pKi values, system = Gastrin/cholecystokinin type B receptor (Mus musculus), multiple refs
pKi: −log10 of the molar value.
Think of 6 as a floor: if pKi stands on it or above, it is Y; beneath it, N.

Consider the following illustrative entries.
# compound, assigned.category
records = [
    ("CC1(C)[C@H]2CC[C@]1(C)[C@H](OC(=O)N[C@](C)(Cc1c[nH]c3ccccc13)C(=O)NC1c3ccccc3CC1O)C2 (some centres unmarked)", "Y"),
    ("CC1(C(=O)N[C@H](CO)Cc2ccccc2)Cc2c([nH]c3ccccc23)CN1C(=O)OC1C2CC3CC(C2)CC1C3 (mixture of isomers)", "Y"),
    ("CC1(C)[C@H]2CC[C@]1(C)[C@H](OC(=O)N[C@](C)(Cc1c[nH]c3ccccc13)C(=O)NC1CCc3ccccc3C1=O)C2 (single isomer, unassigned)", "Y"),
    ("CC1(C(=O)NCC(NC(=O)CCC(=O)OCc2ccccc2)c2ccccc2)Cc2c([nH]c3ccccc23)CN1C(=O)OC1C2CC3CC(C2)CC1C3 (mixture of isomers)", "N"),
    ("CC(Cc1c[nH]c2ccccc12)(NC(=O)OC1C2CC3CC(C2)CC1C3)C(=O)NC1CCCCC1C(=O)O (centres unmarked)", "Y"),
]

-- ask I'd appreciate it if you could say whether C[C@]1(C(=O)NCCc2ccccc2)Cc2c([nH]c3ccccc23)CN1C(=O)OC1C2CC3CC(C2)CC1C3 (some centres unmarked) has pKi at least equal to 6.
-- reply Y
